TESTED SYSTEM: ubiquitin (Schizosaccharomyces pombe, UniProt P0CH06)
Construct: plasmid coding for S. pombe ubiquitin with an N-terminal 6xhistidine-tag, TEV-cleavage site as well as an N-terminal free cysteine; made in house; host or cells: E. coli BL21(DE3)
Sequence (P0CH06 1-76 limits assumed): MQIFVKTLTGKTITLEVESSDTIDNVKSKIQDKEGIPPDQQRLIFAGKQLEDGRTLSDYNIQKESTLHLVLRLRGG
ASSAY INFO: NMR titration of 15N-ubiquitin (1H-15N HSQC chemical shift perturbations)
Format: binding, S. pombe
ASSAY SETUP: peptide or protein titrated into 100 µM 15N-ubiquitin; 20 mM NaH2PO4, 150 mM NaCl, 5 mM TCEP, pH 7.5; global fit of CSPs to one-site-binding model
pKd: −log10 of the molar value.
Label TRUE when pKd is at or above 3; anything below gets FALSE.

# count of solved cases: 3
{"SUBSTANCE": "Ac-DDTLWWEDDWWDDED-NH2 [PepDWD]", "TESTED SYSTEM": "ubiquitin (Schizosaccharomyces pombe, UniProt P0CH06)", "CLASSIFICATION": "TRUE"}
{"SUBSTANCE": "Ac-DLWEDDWDLWEDDWD-NH2 [PepDMD]", "TESTED SYSTEM": "ubiquitin (Schizosaccharomyces pombe, UniProt P0CH06)", "CLASSIFICATION": "TRUE"}
{"SUBSTANCE": "Ac-DLWENNWDLWENNWD-NH2 [Pep43]", "TESTED SYSTEM": "ubiquitin (Schizosaccharomyces pombe, UniProt P0CH06)", "CLASSIFICATION": "FALSE"}

Quick check: does Ac-GDDTLWENNWDDEDI-NH2 [Pep1] have pKd greater than or equal to 3?
FALSE
